Each item that follows carries a reported pIC50.
System: KBH5.0 (variant that overexpresses BCRP)
ASSAY PROCEDURE: Cytotoxicity on KBH5.0 (overexpresses BCRP)
Format: cell-based
pIC50: −log10 of the molar value.

>  <MOLECULE>
COc1cc2c(C(=O)NCC(C)(C)N(C)C)cc3c4cc5c(cc4ncc3c2cc1OC)OCO5 [Compound 31]

>  <pIC50>
8.40

$$$$
>  <MOLECULE>
COc1cc2c(C(=O)NCC(C)(C)N(Cc3ccccc3)Cc3ccccc3)cc3c4cc5c(cc4ncc3c2cc1OC)OCO5 [Compound 32]

>  <pIC50>
6.22

$$$$
